# Test system: Leishmania amazonensis
# Method: In vitro inhibitory concentration against Leishmania amazonensis intracellular amastigotes
# Assay type: functional, organism-based
pIC50: −log10 of the molar value.
Readout Type: pIC50

Compound: CC(O)(c1cccnc1)[C@H]1CC[C@H]2[C@@H]3CCC4C[C@@H](O)CC[C@]4(C)[C@H]3CC[C@]12C (stereo partly drawn)
Meas Value: 5.52
--
Compound: CC(O)(c1ccncc1)[C@H]1CC[C@H]2[C@@H]3CCC4C[C@@H](O)CC[C@]4(C)[C@H]3CC[C@]12C (stereo partly drawn)
Meas Value: 5.52
--
Compound: CC(O)(c1ccccn1)[C@H]1CC[C@H]2[C@@H]3CCC4C[C@@H](O[Si](C)(C)C(C)(C)C)CC[C@]4(C)[C@H]3CC[C@]12C (stereo partly drawn)
Meas Value: 6.00
--
Compound: CCC(=O)N1CCCCC1C(C)(O)[C@H]1CC[C@H]2[C@@H]3CCC4C[C@@H](O[Si](C)(C)C(C)(C)C)CC[C@]4(C)[C@H]3CC[C@]12C (stereo partly drawn)
Meas Value: 5.10
--
Compound: CCC(=O)N1CCCC(C(C)(O)[C@H]2CC[C@H]3[C@@H]4CCC5C[C@@H](O[Si](C)(C)C(C)(C)C)CC[C@]5(C)[C@H]4CC[C@]23C)C1 (stereo partly drawn)
Meas Value: 6.00
--
Compound: CC(O)(C1CCCCN1)[C@H]1CC[C@H]2[C@@H]3CCC4C[C@@H](O[Si](C)(C)C(C)(C)C)CC[C@]4(C)[C@H]3CC[C@]12C (stereo partly drawn)
Meas Value: 7.70
--
Compound: CC(O)(C1CCCNC1)[C@H]1CC[C@H]2[C@@H]3CCC4C[C@@H](O[Si](C)(C)C(C)(C)C)CC[C@]4(C)[C@H]3CC[C@]12C (stereo partly drawn)
Meas Value: 6.00
--
Compound: CC(O)(c1ccccn1)[C@H]1CC[C@H]2[C@@H]3CCC4C[C@@H](O)CC[C@]4(C)[C@H]3CC[C@]12C (stereo partly drawn)
Meas Value: 6.00

Values were extracted from ChEMBL document CHEMBL1136803.
